Where do the numbers come from? From ChEMBL document CHEMBL4321852.

test system: Progesterone receptor (Homo sapiens)
Sequence (P06401 whole entry, the tested form may be a part): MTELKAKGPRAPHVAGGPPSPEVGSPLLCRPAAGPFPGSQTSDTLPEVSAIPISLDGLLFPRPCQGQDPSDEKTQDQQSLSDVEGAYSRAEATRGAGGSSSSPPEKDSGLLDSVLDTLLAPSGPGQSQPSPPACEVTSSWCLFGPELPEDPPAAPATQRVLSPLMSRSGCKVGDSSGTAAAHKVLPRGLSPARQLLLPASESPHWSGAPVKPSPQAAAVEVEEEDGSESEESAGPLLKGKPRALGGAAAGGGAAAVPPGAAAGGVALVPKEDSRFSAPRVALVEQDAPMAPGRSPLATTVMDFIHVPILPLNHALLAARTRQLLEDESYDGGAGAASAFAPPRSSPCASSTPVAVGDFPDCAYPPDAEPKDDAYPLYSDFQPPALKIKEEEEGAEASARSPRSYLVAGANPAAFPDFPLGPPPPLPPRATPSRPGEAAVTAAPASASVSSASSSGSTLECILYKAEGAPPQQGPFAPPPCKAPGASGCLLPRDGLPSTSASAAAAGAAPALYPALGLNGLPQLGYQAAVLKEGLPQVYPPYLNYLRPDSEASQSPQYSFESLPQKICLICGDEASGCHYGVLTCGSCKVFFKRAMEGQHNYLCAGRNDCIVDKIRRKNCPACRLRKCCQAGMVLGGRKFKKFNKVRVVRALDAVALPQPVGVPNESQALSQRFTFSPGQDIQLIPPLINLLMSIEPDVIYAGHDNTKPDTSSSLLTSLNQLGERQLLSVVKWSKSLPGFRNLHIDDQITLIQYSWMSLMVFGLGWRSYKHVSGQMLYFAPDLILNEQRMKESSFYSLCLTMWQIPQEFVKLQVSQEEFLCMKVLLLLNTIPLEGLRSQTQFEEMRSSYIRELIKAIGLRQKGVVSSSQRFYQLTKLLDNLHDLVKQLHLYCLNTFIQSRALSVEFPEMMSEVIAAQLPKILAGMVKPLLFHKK
assay text: Inhibition of Gal4-tagged PR LBD (unknown origin) by cell based luciferase reporter gene assay
quantity measured: IC50

Which IC50 reading was recorded for the compound Cc1c(C2(C(F)(F)F)CC2)nc(C2CC2)n1-c1c(Cl)ccc(N2CC3(CC(C(=O)O)C3)C2)c1Cl (single isomer, unassigned; atropisomer) ?
> 10 µM

* * *

test system: Peroxisome proliferator-activated receptor gamma (Homo sapiens, UniProt P37231)
Sequence (P37231 whole entry, the tested form may be a part): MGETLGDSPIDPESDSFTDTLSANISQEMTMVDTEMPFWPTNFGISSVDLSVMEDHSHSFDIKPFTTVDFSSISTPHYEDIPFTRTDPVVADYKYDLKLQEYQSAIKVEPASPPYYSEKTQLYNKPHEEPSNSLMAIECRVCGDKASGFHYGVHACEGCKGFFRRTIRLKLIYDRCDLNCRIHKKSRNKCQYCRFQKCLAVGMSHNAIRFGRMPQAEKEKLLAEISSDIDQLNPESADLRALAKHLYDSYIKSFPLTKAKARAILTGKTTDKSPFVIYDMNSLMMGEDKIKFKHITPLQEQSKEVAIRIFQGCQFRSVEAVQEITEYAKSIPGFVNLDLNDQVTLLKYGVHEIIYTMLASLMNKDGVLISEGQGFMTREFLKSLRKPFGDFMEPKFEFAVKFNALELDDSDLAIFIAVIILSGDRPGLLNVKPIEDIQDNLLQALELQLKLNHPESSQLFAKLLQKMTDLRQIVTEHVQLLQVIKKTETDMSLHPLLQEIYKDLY
assay text: Inhibition of Gal4-tagged PPARgamma LBD (unknown origin) by cell based luciferase reporter gene assay
pIC50: −log10 of the molar value.
quantity measured: pIC50

Need pIC50 of Cc1c(C2(C(F)(F)F)CC2)nc(C2CC2)n1-c1c(Cl)ccc(N2CC3(CC(C(=O)O)C3)C2)c1Cl (single isomer, unassigned; atropisomer) , thanks.
< 5.00
